B1: tRNA (parent)
chain: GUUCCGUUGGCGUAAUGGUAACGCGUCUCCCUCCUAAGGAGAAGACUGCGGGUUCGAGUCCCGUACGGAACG

Variants of: B1
Test: yeast fitness, log relative to wild type (ln ratio); higher = fitter; tRNA-Arg(CCU), competitive growth, 37 C, 1 M NaCl
Binary classification by yeast fitness (ln), with -0.2 as an inclusive lower bound for class 1; all other cases are class 0.

> print(dat)
                            sequence.record  class.name
1  GGUCCAUUGGCGUAAUGGUAACGCGUCUCCCUCCUAAGGAGAAGACUGCGGGUUCGAGUCCCGUACGGGGUG [U2G G6A A69G A70G C71U]     class 1
2  AGUCCAUUGGCGUAAUGGUAACGCGUCUCCCUCCUAAGGAGAAGACUGCGGGUUCGAGUCCCGUAUGGGGUG [G1A U2G G6A C66U A69G A70G C71U]     class 0
3  AGUCCGUUGGCGUAAUGGUAACGCGUCUCCCUCCUAAGGAGAAGACUGCGGGUUCGAGUCCCGUACGGAAUG [G1A U2G C71U]     class 0
4  GCUCCGUUGGCGUAAUGGUAACGCGUCUCCCUCCUAAGGAGAAGAUUGCGGGUUCGAGUCCCGUAUGGGGCG [U2C C46U C66U A69G A70G]     class 1
5  GUUCCUUUGGCGUAAUGGUAACGCGUUUCCCUCCUAAGGAGAAGAUUGCGGGUUCGAGUCCCGUAAGGGGUG [G6U C27U C46U C66A A69G A70G C71U]     class 0
6  ACUCCAUUGGCGUAAUGGUAACGCGUUUCCCUCCUAAGGAGAAGAUUGCGGGUUCGAGUCCCGUAUGGAGCG [G1A U2C G6A C27U C46U C66U A70G]     class 1
7  ACUCCUUUGGCGUAAUGGUAACGCGUUUCCCUCCUAAGGAGACGAUUGCGGGUUCGAGUCCCGUACGGAUUG [G1A U2C G6U C27U A43C C46U A70U C71U]     class 1
8  GCUCCAUUGGCGUAAUGGUAACGCGUCUCCCUCCUAAGGAGAAGACUGCGGGUUCGAGUCCCGUACGGGUCG [U2C G6A A69G A70U]     class 1

Is reported yeast fitness (ln) greater than or equal to -0.2 here: AUUCCGUUGGCGUAAUGGUAACGCGUCUCCCUCCUAAGGAGAAGACUGCGGGUUCGAGUCCCGUACGGGUUG [G1A A69G A70U C71U]
class 0

Is reported yeast fitness (ln) greater than or equal to -0.2 here: ACUCCAUUGGCGUAAUGGUAACGCGUUUCCCUCCUAAGGAGAAGAUUGCGGGUUCGAGUCCCGUACGGGUCG [G1A U2C G6A C27U C46U A69G A70U]
class 1

Is reported yeast fitness (ln) greater than or equal to -0.2 here: AGUCCGUUGGCGUAAUGGUAACGCGUCUCCCUCCUAAGGAGAAGAUUGCGGGUUCGAGUCCCGUACGGGUUG [G1A U2G C46U A69G A70U C71U]
class 1
